Data credit: ChEMBL document CHEMBL1157144

Overview of reported MIC across a group of molecules:
# System: Moraxella catarrhalis
# TEST_NAME: Antibacterial activity against standard Moraxella catarrhalis after 20 hrs by agar dilution method
# Assay type: functional
A number alone suffices; assume µg/mL.

* CCC(=O)O[C@@H]1CC(=O)O[C@H](C)C[C@H](O)[C@H](N(C)CCCc2ccccc2)/C=C/[C@H](OC(C)=O)[C@H](C)C[C@H](CC=O)[C@H](O[C@@H]2O[C@H](C)[C@@H](O[C@H]3C[C@@](C)(OC(C)=O)[C@@H](OC(=O)CC)[C@H](C)O3)[C@H](N(C)C)[C@H]2O)[C@H]1OC | 0.39
* CCC(=O)O[C@@H]1CC(=O)O[C@H](C)C/C=C/C=C/[C@H](OC(C)=O)[C@H](C)C[C@H](CC=O)[C@H](O[C@@H]2O[C@H](C)[C@@H](O[C@H]3C[C@@](C)(O)[C@@H](OC(=O)CC)[C@H](C)O3)[C@H](N(C)C)[C@H]2O)[C@H]1OC | 0.78

Prompt line: Look at this molecule and give its reported MIC. CCC(=O)O[C@@H]1CC(=O)O[C@H](C)C[C@H](O)[C@H](N(C)CCCCc2ccccc2)/C=C/[C@H](OC(C)=O)[C@H](C)C[C@H](CC=O)[C@H](O[C@@H]2O[C@H](C)[C@@H](O[C@H]3C[C@@](C)(O)[C@@H](OC(=O)CC)[C@H](C)O3)[C@H](N(C)C)[C@H]2O)[C@H]1OC
Response line: 0.78

---

# Test system: Moraxella catarrhalis
# TEST_NAME: Antibacterial activity against standard Moraxella catarrhalis after 20 hrs by agar dilution method
# Assay type: functional
READOUT_TYPE: MIC (µg/mL)
Answer in µg/mL, number only, no unit symbol.

* CCC(=O)O[C@@H]1CC(=O)O[C@H](C)C[C@H](O)[C@H](N(C)CCCc2ccncc2)/C=C/[C@H](OC(C)=O)[C@H](C)C[C@H](CC=O)[C@H](O[C@@H]2O[C@H](C)[C@@H](O[C@H]3C[C@@](C)(O)[C@@H](OC(=O)CC)[C@H](C)O3)[C@H](N(C)C)[C@H]2O)[C@H]1OC | 0.78
* CCC(=O)O[C@@H]1CC(=O)O[C@H](C)C[C@H](O)[C@H](N(C)CCCc2ccccc2)/C=C/[C@H](OC(C)=O)[C@H](C)C[C@H](CC=O)[C@H](O[C@@H]2O[C@H](C)[C@@H](O)[C@H](N(C)C)[C@H]2O)[C@H]1OC | 0.025
* CCC(=O)O[C@@H]1CC(=O)O[C@H](C)C[C@H](O)[C@H](N(C)CCCCCc2ccccc2)/C=C/[C@H](OC(C)=O)[C@H](C)C[C@H](CC=O)[C@H](O[C@@H]2O[C@H](C)[C@@H](O[C@H]3C[C@@](C)(O)[C@@H](OC(=O)CC)[C@H](C)O3)[C@H](N(C)C)[C@H]2O)[C@H]1OC | 0.39
* CCC(=O)O[C@@H]1CC(=O)O[C@H](C)C[C@H](O)[C@H](N(C)CCc2ccccc2)/C=C/[C@H](OC(C)=O)[C@H](C)C[C@H](CC=O)[C@H](O[C@@H]2O[C@H](C)[C@@H](O[C@H]3C[C@@](C)(O)[C@@H](OC(=O)CC)[C@H](C)O3)[C@H](N(C)C)[C@H]2O)[C@H]1OC | 0.39

Prompt line: Returns the measured MIC for the input compound. Input: CCC(=O)O[C@@H]1CC(=O)O[C@H](C)C[C@H](O)[C@H](N(C)CCCc2ccncc2)/C=C/[C@H](OC(C)=O)[C@H](C)C[C@H](CC=O)[C@H](O[C@@H]2O[C@H](C)[C@@H](O)[C@H](N(C)C)[C@H]2O)[C@H]1OC
Response line: 0.1

Prompt line: Given the entry CCC(=O)O[C@@H]1CC(=O)O[C@H](C)C[C@H](O)[C@H](N(C)CCCCCCCc2ccccc2)/C=C/[C@H](OC(C)=O)[C@H](C)C[C@H](CC=O)[C@H](O[C@@H]2O[C@H](C)[C@@H](O[C@H]3C[C@@](C)(O)[C@@H](OC(=O)CC)[C@H](C)O3)[C@H](N(C)C)[C@H]2O)[C@H]1OC , report its measured MIC.
Response line: 3.13

Prompt line: Field request: MIC | item: CCC(=O)O[C@@H]1CC(=O)O[C@H](C)C[C@H](O)[C@H](N(C)CCCc2cccc3ccccc23)/C=C/[C@H](OC(C)=O)[C@H](C)C[C@H](CC=O)[C@H](O[C@@H]2O[C@H](C)[C@@H](O[C@H]3C[C@@](C)(O)[C@@H](OC(=O)CC)[C@H](C)O3)[C@H](N(C)C)[C@H]2O)[C@H]1OC
Response line: 0.78
